Each entry below carries its recorded Kd.
# testTarget: murine IL-2 receptor βγc heterodimer (mIL-2Rβγc) (mouse) (UniProt P16297)
# measurementDescription: SPR; mIL-2Rγ immobilised, saturating mIL-2Rβ in solution
# value in nM; strip the unit string

binder	Kd [nM]
mouse IL-2 (mIL-2) (ligand, UniProt P04351 21-169, looked up) APTSSSTSSSTAEAQQQQQQQQQQQQHLEQLLMDLQELLSRMENYRNLKLPRMLTFKFYLPKQATELKDLQCLEDELGPLRHVLDLTQSKSFQLEDAENFISNIRVTVVKLKGSDNTFECQFDDESATVVDFLRRWIAFCQSIISTSPQ	126
G1_neo2_40_1F (designed binder) STKKTQLLAEHALLDALMMLNLLPEPNEKLNRIITTMQSWIFTGKIDGDGAQELAKEVEELEQEHEKRGIDVEDYASNLKVILLELA	7.9

**Query** Find the recorded Kd belonging to G1_neo2_40_1F_H2 (designed binder) STKKTQLLLEHALLDALHMRRNLPEPNEKLSRIITTMQSWIFTGKIDGDGAQELAKEVEELEQEHEKRGRDVEDDASNLKVILLELA and report it.
**Result** 964
